molecular target: T1, Fel d1 (B-A)-mmH (cat (Felis domesticus)); assay: SPR, mAb captured, Fel d1 (B-A)-mmH injected, 25 C;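 also: rate constants obtained by fitting sensorgrams to a one-to-one binding model, Kd computed as koff over kon, half-life derived from koff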
T1 construct: Expressed in CHO cells; also called rFel d1.mmH; rFel d1-mmH
T1 sequence (chain, as listed by the source limits assumed): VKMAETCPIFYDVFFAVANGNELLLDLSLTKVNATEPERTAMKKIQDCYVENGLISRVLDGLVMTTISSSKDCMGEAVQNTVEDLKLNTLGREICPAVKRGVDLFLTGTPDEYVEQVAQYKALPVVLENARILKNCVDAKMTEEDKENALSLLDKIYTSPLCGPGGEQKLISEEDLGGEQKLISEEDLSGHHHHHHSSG
measurement type: Kd (nM)

1. H4H2597B (antibody, human IgG4, V domains shown, human IgG4 Fc (prefix H4H)) VH: EVQLVESGGGLVQPGGSLRLSCAVSGFTFSNYAMNWVRQAPGKGLEWVSVISDSGRSTYYADSVKGRFTISRDNSKNTLYLQMNSLRAEDTAVYFCAKRYNWNLHYFDYWGQGTTVTVSS VL: EIVLTQSPDFQSVTPKEKVTITCRASQSIGGSLHWYQQKPDQSPKLLIKYASQSFSGVPSRFSGSGSGTDFTLTINSLEAEDAATYYCLQSSSLRTFGQGTKVEIKR : 0.501
2. H2M1242N (antibody, mouse IgG2, V domains shown, chimeric, human variable domains with mouse IgG2 Fc (prefix H2M)) VH: EVQLVESGGGLVRPGGSLRLSCAASGFTFTSYAMNWVRQAPGKGLEWVSSISSYSSYIYIADSVKGRFTLSRDNAKNSLYLQMHSLRPEDTAVYFCAREGYSAYSYFDFWGRGTLVTVSS VL: DIQMTQSPSTLSASVGDRVTITCRASQSVISWLAWYQQKPGKAPKLLIHRASSLESGVPSRFSGSGSGTEFTLTISGLQPDDFATYYCQQYNTYFPTFGQGTKVEVK : 0.449
3. H4H2797P (antibody, human IgG4, V domains shown, human IgG4 Fc (prefix H4H)) VH: QVQLVESGGGVVLPGRSLRLSCAASGFTFSSYLMYWVRQAPGKGLEWVAVIWYDGSNKFYGDSVKGRFTISRDNSKNTLYLQMNSLRAEDTAVYYCARDNGNSGYEDSWNAFDIWGQGTMVTVSS VL: DIQMTQSPSSLSASVGDRVTITCRASQDIYNYLAWFQQKPGKAPKSLIYAASSLQTGVPSQFSGSGSGTDFTLTISSLQPEDFATYYCQQYNNYPFTFGPGTKVDIK : 4.69
4. H4H2636P (antibody, human IgG4, V domains shown, human IgG4 Fc (prefix H4H); also called REGN1909) VH: EVQLVESGGGLVQPGGSLRLSCAASGFTFSSYAMSWVRQAPGKGLEWVSAISGRGYNADYADSVKGRFTISRDNSKNTLYLQMNSLRAEDTAVYYCAKLEYFDYWGQGTLVTVSS VL: DIQMTQSPSTLSASVGDRVTITCRASQSISSWLAWYQQKPGKAPKLLIYKASSLESGVPSRFSGSGSGTDFTLTISSLRPEDFATYYCQQYNSYPLTFGGGTKVEIK : 0.912
5. H2M1233N (antibody, mouse IgG2, V domains shown, chimeric, human variable domains with mouse IgG2 Fc (prefix H2M)) VH: QVVLVESGGGVVQPGRSLRLSCAASGFTFSSYGMHWVRQAPGKGLEWVAVIWYDGSNKYYVDSVKGRFTISRDNSNNTIYLQMNSLRAEDTAVYYCARSLIPVAGTDPIFGYWGQGTLVTVSS VL: DIQMTQSPSTLSASVGDRVTITCRASQSVSSWLAWYQQKPGKAPKLLIFKASGLESGVPFRFSGSGSGTEFTLTISSLQPDDFATYYCQQYNTYSPTFGQGTKVEIK : 0.544
6. H4H2636B (antibody, human IgG4, V domains shown, human IgG4 Fc (prefix H4H)) VH: EVQLVESGGGLVQPGGSLRLSCAASGFTFSSYAMSWVRQAPGKGLEWVSAISGRGYNADYADSVKGRFTISRDNSKNTLYLQMNSLRAEDTAVYYCAKLEYFDYWGQGTTVTVSS VL: DIQLTQSPSTLSASVGDRVTITCRASQSISSWLAWYQQKPGKAPKLLIYKASSLESGVPSRFSGSGSGTDFTLTISSLRPEDFATYYCQQYNSYPLTFGGGTKVEIKR : 0.924
7. H2M1237N (antibody, mouse IgG2, V domains shown, chimeric, human variable domains with mouse IgG2 Fc (prefix H2M)) VH: QVVLVESGGGVVQPGRSLRLSCAASGFTFSSYGMHWVRQAPGKGLEWVAVIWYDGSIKYYADSVKGRFTISRDNSNNTIYLQMNSLRAEDTAVYYCARALIPVAGTDPIFGYWGQGTLVTVSS VL: DIQMTQSPSTLSASVGDRVTITCRASQSVSSWLAWYQQKPGKAPKLLIFKTSGLESGVPFRFSGSGSGTEFTLTISSLQPDDFATYYCQQYNTYSPTFGQGTKVEIK : 0.458
8. H4H2645P (antibody, human IgG4, V domains shown, human IgG4 Fc (prefix H4H)) VH: EVQLVESGGGLVQPGGSLRLSCAASGFTFSTYAMHWVRQAPGKGLEWVSSISGRGRNSDHADSVKGRFTISRDNSKNTLYLQMNSLRAEDTAVYYCARTEYFHHWGQGTLVTVSS VL: DIQMTQSPSSLSASVGDRITITCRASQDINNYLAWFQQKPGKAPKSLIYGASSLQSGVPSKFSGSGSGTDFTLTISSLQPEDFATYYCQQYSSYPFTFGPGTKVDIK : 0.368
9. H4H2594S (antibody, human IgG4, V domains shown, human IgG4 Fc (prefix H4H)) VH: EVQLVESGGGLVKPGGSLRLSCAASGFTFSDYYMNWIRQAPGKGLEWVSYISSSGSSIYYADSVKGRFTISRDNAKNSLYLLMNSLRAEDTAVYYCARDGKYNSSPGDYWGQGTLVTVSS VL: DIQMTQSPSSLSASVGDRVTIACRASQGISNYLAWFQQKPGKAPKSLIYAASSLQSGVPSKFSGSGSGTDFTLTISSLQPEDFATYYCQQYNSYPLTFGGGTKVEIKR : 0.402
10. H4H2607B (antibody, human IgG4, V domains shown, human IgG4 Fc (prefix H4H)) VH: EVQLVESGGGLVKPGGSLRLSCAASGFTFSDYYMNWIRQAPGKGLEWISYLSSSGSATYYADSVKGRFTISRDNAKNSLYLQMNSLRAEDTAVYYCARDGKYNTVAGDYWGQGTTVTVSS VL: DIQLTQSPSSLSASVGDRVTITCRASQGIRNDLGWYQQKPGKAPKRLIYAASSLQSGVPSRFSGSGSGTEFTLTISSLQPEDFATYYCLQHNSYPYTFGQGTKVEIKR : 0.364
